Experiment: Solubility of hydrogen fumarate salt 11 (1000 mg scale-up batch)
Type: physicochemical
Conditions: organic solvent or mixture; IPA, RT
VALUE_KIND: solubility

* CC(C)c1nc(-c2cnc(N)c(OC(F)(F)F)c2)cn1C12CC(N3CCOCC3)(C1)C2.O=C(O)/C=C/C(=O)O | 10 to 20 mg/mL

====

Assay: Solubility of hydrogen fumarate salt 11 (1000 mg scale-up batch)
Assay type: physicochemical
Conditions: water; H2O, 50° C.
VALUE_KIND: solubility

- CC(C)c1nc(-c2cnc(N)c(OC(F)(F)F)c2)cn1C12CC(N3CCOCC3)(C1)C2.O=C(O)/C=C/C(=O)O [Example 11]: 10 to 20 mg/mL

====

Test: Solubility of hydrogen fumarate salt 11 (1000 mg scale-up batch)
Assay type: physicochemical
Conditions: organic solvent or mixture; Toluene, RT
VALUE_KIND: solubility

• CC(C)c1nc(-c2cnc(N)c(OC(F)(F)F)c2)cn1C12CC(N3CCOCC3)(C1)C2.O=C(O)/C=C/C(=O)O = < 10000 µg/mL

====

Assay: Solubility of hydrogen fumarate salt 11 (1000 mg scale-up batch)
Format: physicochemical
Conditions: organic solvent or mixture; MTBE, RT
VALUE_KIND: solubility

- CC(C)c1nc(-c2cnc(N)c(OC(F)(F)F)c2)cn1C12CC(N3CCOCC3)(C1)C2.O=C(O)/C=C/C(=O)O: < 10000 µg/mL

====

Assay: Dynamic vapor sorption (DVS), hygroscopicity
Format: physicochemical
Details: DVS, 25° C.
Measured Maximum sorption accompanies every entry in the list below.
VALUE_KIND: Maximum sorption (%)

* CC(C)c1nc(-c2cnc(N)c(OC(F)(F)F)c2)cn1C12CC(N3CCOCC3)(C1)C2.O=C(O)CC(O)(CC(=O)O)C(=O)O | 0.60
* CC(C)c1nc(-c2cnc(N)c(OC(F)(F)F)c2)cn1C12CC(N3CCOCC3)(C1)C2.O=C(O)/C=C/C(=O)O | 0.47
* CC(C)c1nc(-c2cnc(N)c(OC(F)(F)F)c2)cn1C12CC(N3CCOCC3)(C1)C2.O=C(O)/C=C\C(=O)O | 0.27
* CC(C)c1nc(-c2cnc(N)c(OC(F)(F)F)c2)cn1C12CC(N3CCOCC3)(C1)C2.O=C(O)CCC(=O)O | 0.30

====

Assay: Solubility of the Example 1 compound in organic solvents
Format: physicochemical
Details: 25 °C, organic solvent or mixture, thermodynamic from solid; Dioxane, RT
VALUE_KIND: solubility at 2 h

* CC(C)c1nc(-c2cnc(N)c(OC(F)(F)F)c2)cn1C12CC(N3CCOCC3)(C1)C2 | > 50 mg/mL

====

Test: Solubility in physiologically relevant solutions (SGF, FaSSIF, FeSSIF)
Format: physicochemical
Details: 25 °C, simulated gastric fluid, thermodynamic from solid, SGF, 25±0.5° C., read-out: Solubility SGF Conc
Mark NO for solubility at 24 h values under 6000 µg/mL, and YES for everything at or above.

• CC(C)c1nc(-c2cnc(N)c(OC(F)(F)F)c2)cn1C12CC(N3CCOCC3)(C1)C2.O=C(O)/C=C\C(=O)O = YES
• CC(C)c1nc(-c2cnc(N)c(OC(F)(F)F)c2)cn1C12CC(N3CCOCC3)(C1)C2.O=C(O)CC(O)(CC(=O)O)C(=O)O = YES
• CC(C)c1nc(-c2cnc(N)c(OC(F)(F)F)c2)cn1C12CC(N3CCOCC3)(C1)C2.O=C(O)CCC(=O)O = YES
• CC(C)c1nc(-c2cnc(N)c(OC(F)(F)F)c2)cn1C12CC(N3CCOCC3)(C1)C2.O=C(O)/C=C/C(=O)O = NO
• CC(C)c1nc(-c2cnc(N)c(OC(F)(F)F)c2)cn1C12CC(N3CCOCC3)(C1)C2 = NO

====

The entries below are paired with their reported purity.
Test: Stability (50° C., 40° C./75% RH, light; 1 week)
Format: physicochemical
Conditions: light, bulk, 1 week
VALUE_KIND: purity (%)

- CC(C)c1nc(-c2cnc(N)c(OC(F)(F)F)c2)cn1C12CC(N3CCOCC3)(C1)C2.O=C(O)/C=C\C(=O)O [Example 9]: 99.79
- CC(C)c1nc(-c2cnc(N)c(OC(F)(F)F)c2)cn1C12CC(N3CCOCC3)(C1)C2.O=C(O)CCC(=O)O [Example 10]: 99.74
- CC(C)c1nc(-c2cnc(N)c(OC(F)(F)F)c2)cn1C12CC(N3CCOCC3)(C1)C2.O=C(O)/C=C/C(=O)O [Example 11]: 99.89
- CC(C)c1nc(-c2cnc(N)c(OC(F)(F)F)c2)cn1C12CC(N3CCOCC3)(C1)C2.O=C(O)CC(O)(CC(=O)O)C(=O)O [Example 8]: 99.44
- CC(C)c1nc(-c2cnc(N)c(OC(F)(F)F)c2)cn1C12CC(N3CCOCC3)(C1)C2 [Example 1]: 96.61

====

Assay: Solubility of the Example 1 compound in organic solvents
Format: physicochemical
Details: 25 °C, organic solvent or mixture, thermodynamic from solid; MTBE, RT
VALUE_KIND: solubility at 2 h

• CC(C)c1nc(-c2cnc(N)c(OC(F)(F)F)c2)cn1C12CC(N3CCOCC3)(C1)C2 = < 50 mg/mL

====

Test: Solubility of hydrogen fumarate salt 11 (1000 mg scale-up batch)
Assay type: physicochemical
Conditions: aqueous with cosolvent or surfactant or cyclodextrin; 1/1 (v/v) Acetone/H2O, RT
VALUE_KIND: solubility

• CC(C)c1nc(-c2cnc(N)c(OC(F)(F)F)c2)cn1C12CC(N3CCOCC3)(C1)C2.O=C(O)/C=C/C(=O)O = < 33 mg/mL

====

Test: Solubility of hydrogen fumarate salt 11 (1000 mg scale-up batch)
Type: physicochemical
Conditions: organic solvent or mixture; MEK, RT
VALUE_KIND: solubility

• CC(C)c1nc(-c2cnc(N)c(OC(F)(F)F)c2)cn1C12CC(N3CCOCC3)(C1)C2.O=C(O)/C=C/C(=O)O = < 10000 µg/mL

====

Assay: Solubility of hydrogen fumarate salt 11 (1000 mg scale-up batch)
Type: physicochemical
Conditions: organic solvent or mixture; ACN, RT
VALUE_KIND: solubility

- CC(C)c1nc(-c2cnc(N)c(OC(F)(F)F)c2)cn1C12CC(N3CCOCC3)(C1)C2.O=C(O)/C=C/C(=O)O [Example 11]: < 10000 µg/mL

====

Assay: Solubility in physiologically relevant solutions (SGF, FaSSIF, FeSSIF)
Format: physicochemical
Conditions: FeSSIF, 25±0.5° C.
Reported FeSSIF pH after 24 h values are given for each entry in this list.
VALUE_KIND: FeSSIF pH after 24 h

- CC(C)c1nc(-c2cnc(N)c(OC(F)(F)F)c2)cn1C12CC(N3CCOCC3)(C1)C2.O=C(O)/C=C\C(=O)O [Example 9]: 4.90
- CC(C)c1nc(-c2cnc(N)c(OC(F)(F)F)c2)cn1C12CC(N3CCOCC3)(C1)C2.O=C(O)CCC(=O)O [Example 10]: 4.88
- CC(C)c1nc(-c2cnc(N)c(OC(F)(F)F)c2)cn1C12CC(N3CCOCC3)(C1)C2.O=C(O)CC(O)(CC(=O)O)C(=O)O [Example 8]: 4.86
- CC(C)c1nc(-c2cnc(N)c(OC(F)(F)F)c2)cn1C12CC(N3CCOCC3)(C1)C2 [Example 1]: 5.00
- CC(C)c1nc(-c2cnc(N)c(OC(F)(F)F)c2)cn1C12CC(N3CCOCC3)(C1)C2.O=C(O)/C=C/C(=O)O [Example 11]: 4.84

====

Assay: Solubility of hydrogen fumarate salt 11 (1000 mg scale-up batch)
Type: physicochemical
Conditions: organic solvent or mixture; DMSO, RT
VALUE_KIND: solubility

• CC(C)c1nc(-c2cnc(N)c(OC(F)(F)F)c2)cn1C12CC(N3CCOCC3)(C1)C2.O=C(O)/C=C/C(=O)O = < 100 mg/mL

====

Assay: Solubility of hydrogen fumarate salt 11 (1000 mg scale-up batch)
Format: physicochemical
Details: organic solvent or mixture; THF, RT
VALUE_KIND: solubility

* CC(C)c1nc(-c2cnc(N)c(OC(F)(F)F)c2)cn1C12CC(N3CCOCC3)(C1)C2.O=C(O)/C=C/C(=O)O [Example 11] | < 10000 µg/mL

====

Recorded solubility at 24 h values for a group of molecules are listed next.
Assay: Solubility in physiologically relevant solutions (SGF, FaSSIF, FeSSIF)
Format: physicochemical
Conditions: 25 °C, thermodynamic from solid, FeSSIF, 25±0.5° C., read-out: Solubility FeSSIF Conc
VALUE_KIND: solubility at 24 h

- CC(C)c1nc(-c2cnc(N)c(OC(F)(F)F)c2)cn1C12CC(N3CCOCC3)(C1)C2 [Example 1]: 473 µg/mL
- CC(C)c1nc(-c2cnc(N)c(OC(F)(F)F)c2)cn1C12CC(N3CCOCC3)(C1)C2.O=C(O)/C=C/C(=O)O [Example 11]: 646 µg/mL
- CC(C)c1nc(-c2cnc(N)c(OC(F)(F)F)c2)cn1C12CC(N3CCOCC3)(C1)C2.O=C(O)CCC(=O)O [Example 10]: 642 µg/mL
- CC(C)c1nc(-c2cnc(N)c(OC(F)(F)F)c2)cn1C12CC(N3CCOCC3)(C1)C2.O=C(O)/C=C\C(=O)O [Example 9]: 565 µg/mL
- CC(C)c1nc(-c2cnc(N)c(OC(F)(F)F)c2)cn1C12CC(N3CCOCC3)(C1)C2.O=C(O)CC(O)(CC(=O)O)C(=O)O [Example 8]: 773 µg/mL

The reported measurements were obtained from patent US20190382396A1.
